- experimental.target: Fuc(a1-2)Gal(b1-3)GlcNAc(b1-2)Man(a1-3)[Fuc(a1-2)Gal(b1-3)GlcNAc(b1-2)Man(a1-6)]Man(b1-4)GlcNAc(b1-4)GlcNAc
- protocol.details: glycan array binding signal (z-score within array); higher = stronger binding
- protocol.conditions: glycan notation: IUPAC condensed, linker removed
This is one part of a sample in which the strongest signals are shown more often than they occur.
Parameter glycan array binding signal (z-score): see the listing below.

binder: NKR-PIC (Mus musculus) (protein) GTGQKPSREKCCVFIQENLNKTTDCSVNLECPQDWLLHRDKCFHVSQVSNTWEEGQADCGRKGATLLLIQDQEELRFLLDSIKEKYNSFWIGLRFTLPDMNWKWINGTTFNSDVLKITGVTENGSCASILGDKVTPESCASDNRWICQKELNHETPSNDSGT
glycan array binding signal (z-score): -0.138
--
binder: HPAIIITrx (Helix pomatia), Q1KM18 (protein) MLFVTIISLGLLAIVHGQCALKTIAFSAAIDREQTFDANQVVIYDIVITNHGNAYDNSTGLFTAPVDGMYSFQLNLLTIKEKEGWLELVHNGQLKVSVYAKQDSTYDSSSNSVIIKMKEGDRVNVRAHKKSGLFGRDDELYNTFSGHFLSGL
glycan array binding signal (z-score): 3.03
--
binder: SGC, Q9M345 (protein) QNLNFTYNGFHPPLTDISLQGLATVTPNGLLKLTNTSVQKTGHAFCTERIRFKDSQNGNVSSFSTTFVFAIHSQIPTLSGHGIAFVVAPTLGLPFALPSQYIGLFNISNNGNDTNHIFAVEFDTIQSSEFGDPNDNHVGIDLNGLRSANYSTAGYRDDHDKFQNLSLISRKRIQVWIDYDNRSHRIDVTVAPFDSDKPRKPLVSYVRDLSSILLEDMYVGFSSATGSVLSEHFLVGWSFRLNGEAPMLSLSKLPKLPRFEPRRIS
glycan array binding signal (z-score): 3.64
--
binder: Sp8391B-bot-388-20-388 (Bacteroides ovatus) (protein) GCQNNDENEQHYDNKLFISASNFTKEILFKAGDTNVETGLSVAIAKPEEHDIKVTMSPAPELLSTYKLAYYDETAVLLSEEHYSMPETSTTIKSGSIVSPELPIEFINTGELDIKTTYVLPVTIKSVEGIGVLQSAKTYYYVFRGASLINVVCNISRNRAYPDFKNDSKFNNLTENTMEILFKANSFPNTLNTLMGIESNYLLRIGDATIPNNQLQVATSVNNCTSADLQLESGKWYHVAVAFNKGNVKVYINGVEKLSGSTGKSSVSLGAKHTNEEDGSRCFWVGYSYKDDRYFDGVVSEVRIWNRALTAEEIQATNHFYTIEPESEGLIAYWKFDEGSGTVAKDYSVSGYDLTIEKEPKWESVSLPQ
glycan array binding signal (z-score): 2.69
--
binder: CLEC-1 (Homo sapiens), Q9NZH3 (protein) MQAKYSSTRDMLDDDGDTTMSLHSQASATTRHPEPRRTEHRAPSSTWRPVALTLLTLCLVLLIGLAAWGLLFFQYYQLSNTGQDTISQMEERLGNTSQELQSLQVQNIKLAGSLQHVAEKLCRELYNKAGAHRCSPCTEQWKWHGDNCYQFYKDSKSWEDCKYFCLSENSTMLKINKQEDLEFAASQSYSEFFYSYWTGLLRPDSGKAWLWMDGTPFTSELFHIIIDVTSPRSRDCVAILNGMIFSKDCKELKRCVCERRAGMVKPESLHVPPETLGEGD
glycan array binding signal (z-score): 6.09

Data credit: the supplement of paper PMC8728848
